Reference source for all entries: PubChem BioAssay (NCI)

Documented growth inhibition across a set of molecules
- assay.remarks: NCI Yeast Anticancer Drug Screen. Data for the sgs1 mgt1 strain (AID 161);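 also: 0% = growth of cultures given vehicle only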
- test.parameters: S. cerevisiae sgs1 mgt1 strain, at 50.0 µM, stronger effect = higher value
This is part of a sample that, as a whole, favours compounds with a hit. Of some 79,000 tested, about 15% had one in any assay.
assay.metric: growth inhibition (%)

molecule	measure.unit	observed.measurement
Oc1c(Cl)cc(Br)cc1Cl	%	96.5
Cc1ccc(O)c(Cc2ccccc2Cl)c1	%	99.5
O=C1C=CC2=Nc3ccccc3CCC2=C1	%	87.7
ON=C1c2ccccc2-c2ccccc21	%	41.5
CN=C(N)N/N=C(\C)c1ccc2c(c1)Cc1cc(/C(C)=N/NC(N)=NC)ccc1-2	%	83.2
[Cl][Pt+2]([Cl])([Cl])[Cl].[NH-]CC1(C[NH-])CCCC1	%	90.3
O=[N+]([O-])c1ccc(-c2nc3ccc(F)cc3[nH]2)o1	%	99.7
CCOC1Oc2ccccc2-c2nc(SC)ncc21 (configuration not stated)	%	36.6
CC(=O)OC1C(C)OC(OC(=O)C2CCC3C(C2)OC2(CC(OC(=O)/C=C/c4ccccc4)C(C)CO2)C32CO2)C(OC2OC(C)C(O)C(OC(C)=O)C2O)C1O (configuration not stated)	%	91.5
CCOc1c(N=Nc2ccccc2OC)c(C)nn1C(N)=S	%	9.1
Nc1ccc(C2CCC[C@H]2c2ccc(N)cc2)cc1 (some centres not stated)	%	53.2
O=C(O)c1cc2cc3ccccc3cc2cc1O	%	81

###

- assay.remarks: NCI Yeast Anticancer Drug Screen. Data for the mec2-1 strain (AID 157)
- test.parameters: S. cerevisiae mec2-1 strain, at 50.0 µM
Compounds without any hit were thinned out: in the full panel of roughly 79,000, 15% have a hit. Activity calls are given as the source filed them. Rule as the data show it: active = growth inhibition above about 70%; inactive = the rest.
Outcome codes: T (active), F (inactive)

compound	category.label
O=S=C(c1ccccc1)N(Cc1ccccc1)Cc1ccccc1	T
O=C1C=CC(=O)N1C1CCCCC1	T
O=C1C=CC(=O)N1C1c2ccccc2-c2ccccc21	T
CC(C)(CN1CCCCC1)C(=O)CC(SCCS(=O)(=O)O)c1ccc(Cl)cc1 (stereo unspecified)	F
O/N=C/c1cc(Cl)cc(Cl)c1O	T
C[C@]12CCC(=O)C=C1CC[C@@H]1[C@@H]2[C@@H](O)C[C@@]2(C)[C@H]1CC[C@]2(O)C(=O)COC(=O)C1CCCC1	F
COc1cccc(C2c3cc4c(cc3OC(NNS(=O)(=O)c3ccc(C)cc3)C2C)OCO4)c1O (stereo unspecified)	T
O=C(O)c1ccc2c(c1)CC1(C2)Cc2cc3c(cc2C1=O)CCC3 (stereo unspecified)	T
CC(=O)O/C=C\COC(C)=O	F
COC(=O)c1nc(=S)[nH]c(C(=O)OC)c1C(=O)c1ccccn1	T
Cc1ccc(S(=O)(=O)N2CCN3C(=O)c4ccccc4C32c2ccc(F)cc2)cc1 (stereo unspecified)	F

###

- assay.remarks: NCI Yeast Anticancer Drug Screen. Data for the bub3 strain (AID 167)
- test.parameters: S. cerevisiae bub3 mutant strain, at 5.0 µM (retest, dose inferred, filed as 0.5), stronger effect = higher value
About 79,000 compounds went through this panel and 15% of them were active in at least one assay; those are over-represented in the sample as a whole.

smiles.data	measure.unit	growth inhibition
CCCN1C(=O)c2ccccc2C1=O	%	10
O=S1(=O)CS(=O)(=O)OCCCO1	%	7
CCN(CC)c1ccc(SC#N)cc1	%	10
O=C1Nc2ccccc2/C1=C/c1ccc(Cl)c(Cl)c1	%	-10
O=C(Cl)c1cc(-c2ccc(Cl)cc2)nc2c(Cl)cccc12	%	4
CNc1ccc(N)cc1	%	9
CC(C)(C)C(=O)/C=C/c1ccc2ccccc2n1	%	-67
